- EXPERIMENTAL_SYSTEM: X-box-binding protein 1 (Homo sapiens) (UniProt P17861)
- Sequence (P17861 whole entry, looked up): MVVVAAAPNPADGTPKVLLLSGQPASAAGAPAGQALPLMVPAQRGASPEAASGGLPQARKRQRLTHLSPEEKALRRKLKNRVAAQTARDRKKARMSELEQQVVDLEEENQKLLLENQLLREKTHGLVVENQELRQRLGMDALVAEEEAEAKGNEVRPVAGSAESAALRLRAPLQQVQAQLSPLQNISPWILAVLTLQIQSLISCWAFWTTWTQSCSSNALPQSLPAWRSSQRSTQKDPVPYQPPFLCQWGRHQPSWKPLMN
- ASSAY_NAME: ATG_Xbp1_CIS: Attagene CIS-FACTORIAL HepG2 Assay for human X-box Binding Protein 1 (XBP1) (AID 2282972)
- COND: HepG2 XBP1 cis-element reporter, Attagene multiplex; actives raise or lower the signal
Calls of active or inactive are those of the source. The calls were made as follows: active = hit-call score of the fitted dose curve at least 0.9, where 1 is the maximum; inactive = score below 0.9.
Tick one outcome: active, inactive

{"columns": ["COMPOUND", "EXPERIMENTAL_SYSTEM", "CLASS"],
 "data": [
  ["CC1CCC(CO)CC1 (stereo not drawn)", "X-box-binding protein 1 (Homo sapiens) (UniProt P17861)", "inactive"],
  ["NCCN", "X-box-binding protein 1 (Homo sapiens) (UniProt P17861)", "inactive"],
  ["CCCCCc1ccc(O)cc1", "X-box-binding protein 1 (Homo sapiens) (UniProt P17861)", "inactive"]
]}

Incoming: Can you look up the reported call for O=S(=O)(O)c1ccc2cc(O)ccc2c1 for me?
Outgoing: inactive

Incoming: Can you look up the reported call for OCCN1CN(CCO)CN(CCO)C1 for me?
Outgoing: active

Incoming: Can you look up the reported call for OCC1CCC(CO)CC1 (stereo not drawn) for me?
Outgoing: inactive

Incoming: Can you look up the reported call for CCCCCCCCCCCCOC(=O)c1cc(O)c(O)c(O)c1 for me?
Outgoing: active

Incoming: Can you look up the reported call for CCN(CC)CC for me?
Outgoing: inactive

Incoming: Can you look up the reported call for CC(C)c1c(C(=O)Nc2ccccc2)c(-c2ccccc2)c(-c2ccc(F)cc2)n1CC[C@@H](O)C[C@@H](O)CC(=O)O for me?
Outgoing: inactive

Incoming: Can you look up the reported call for CCOC(OCC)C(=O)c1ccccc1 for me?
Outgoing: inactive

Incoming: Can you look up the reported call for Cc1cccc2c1ccc1ccccc12 for me?
Outgoing: inactive
